Biological target: T1, human BCMA on CHO cells (human)
T1 chain: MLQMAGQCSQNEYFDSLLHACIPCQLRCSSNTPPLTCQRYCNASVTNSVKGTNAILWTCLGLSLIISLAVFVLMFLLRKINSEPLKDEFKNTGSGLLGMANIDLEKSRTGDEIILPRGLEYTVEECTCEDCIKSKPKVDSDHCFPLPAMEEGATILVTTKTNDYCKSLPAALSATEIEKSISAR
Test: FACS
OBSERVED_PROPERTY: pEC50
Numbers only, as −log10 of the molar value.

BINDER	pEC50
P1AG7207 BCMA arm (antibody, V domains shown) VH: EVQLLESGGGLVQPGGSLRLSCAASGFTFSNAWMDWVRQAPGKGLEWVSQITAKSNNYATYYADSVKGRFTISRDNSKNTLYLQMNSLRAEDTAVYYCTDDGYHWGQGTLVTVSS VL: DIQMTQSPSSLSASVGDRVTITCRASEDIRNGLAWYQQKPGKAPKLLIYNANSLHTGVPSRFSGSGSGTDFTLTISSLQPEDFATYYCEDTSKYPYTFGQGTKLEIK	7.79

Hi! Can you tell me pEC50 for each of these binders?
1. P1AG7191 BCMA arm (antibody, V domains shown) VH: QVQLVQSGAEVKKPGASVKVSCKASGYTFTNYWMHWVRQAPGQGLEWMGIIHPNSGSTNYNEKFQGRVTMTRDTSTSTVYMELSSLRSEDTAVYYCARGIYDYPFAYWGQGTLVTVSS VL: DIQMTQSPSSLSASVGDRVTITCRASESVSIHGTHLMHWYQQKPGKAPKLLIYAASSLQSGVPSRFSGSGSETDFTLTISSLQPEDFATYYCQQSIEDPYTFGGGTKVEIK
2. BCMA (PR)-CD28v15 P1AE9053, BCMA arm (antibody, V domains shown) VH: EVQLLESGGGLVQPGGSLRLSCAASGFTFSSYAMNWVRQAPGKGLEWVSAITASGGSTYYADSVKGRFTISRDNSKNTLYLQMNSLRAEDTAVYYCARYWPMSLWGQGTLVTVSS VL: EIVLTQSPGTLSLSPGERATLSCRASQSVSAYYLAWYQQKPGQAPRLLMYDASIRATGIPDRFSGSGSGTDFTLTISRLEPEDFAVYYCQQYERWPLTFGQGTKVEIKR

Response:
1. 7.70
2. 8.12
